Target: FGFR1 (UniProt P11362)
Sequence (P11362 whole entry, looked up): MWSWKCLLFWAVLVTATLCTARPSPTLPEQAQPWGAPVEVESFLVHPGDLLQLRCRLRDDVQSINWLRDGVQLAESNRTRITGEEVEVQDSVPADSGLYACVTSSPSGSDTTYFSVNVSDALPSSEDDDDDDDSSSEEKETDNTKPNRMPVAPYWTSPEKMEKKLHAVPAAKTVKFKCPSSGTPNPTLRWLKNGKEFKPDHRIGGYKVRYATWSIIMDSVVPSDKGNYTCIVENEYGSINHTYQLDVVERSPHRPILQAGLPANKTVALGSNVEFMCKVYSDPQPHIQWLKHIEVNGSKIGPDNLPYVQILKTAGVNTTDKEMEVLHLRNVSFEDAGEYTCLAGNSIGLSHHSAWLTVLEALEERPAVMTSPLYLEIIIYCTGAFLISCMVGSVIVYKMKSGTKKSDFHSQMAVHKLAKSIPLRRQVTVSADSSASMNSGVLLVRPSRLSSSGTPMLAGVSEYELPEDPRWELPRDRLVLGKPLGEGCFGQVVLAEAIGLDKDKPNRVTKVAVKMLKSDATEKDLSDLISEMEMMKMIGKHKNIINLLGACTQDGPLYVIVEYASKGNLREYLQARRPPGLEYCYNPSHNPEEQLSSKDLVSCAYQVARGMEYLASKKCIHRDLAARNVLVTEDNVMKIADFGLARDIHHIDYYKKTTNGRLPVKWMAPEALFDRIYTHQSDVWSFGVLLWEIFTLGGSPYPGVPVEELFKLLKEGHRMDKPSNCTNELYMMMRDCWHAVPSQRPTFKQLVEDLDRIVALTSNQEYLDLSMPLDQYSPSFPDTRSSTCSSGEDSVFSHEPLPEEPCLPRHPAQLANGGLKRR
Experiment: phosphorylation enrichment, bacterial display (enrichment ratio); higher = better substrate or ligand; peptides without Tyr show the background;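 note: 11-residue human phosphosite peptides and single-mutation variants displayed on the E. coli surface, counted by deep sequencing, each peptide's frequency after selection divided by its frequency in the unselected input library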;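 note: frequency after pTyr selection over input frequency; kinase dosed for 20-30% of maximal phosphorylation in three min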
property: phosphorylation enrichment
Field format: numeric only.

Entry LSDGPYSNSFE [EPOR_Y485_P488S_YF] , phosphorylation enrichment reported as 1.07

Entry EEGRVYVYRLS [ITGAE_Y549] , phosphorylation enrichment reported as 0.496

Entry ANVIRYFPTQA [SLC25A4_Y81] , phosphorylation enrichment reported as 0.524

Entry NWGKKYPTCNS [PTPRZ1_Y53] , phosphorylation enrichment reported as 0.459

Entry TRDTDYQMTKR [ADA_Y308_L304R] , phosphorylation enrichment reported as 0.394

Entry MSRDVYSTDCF [NTRK2_Y702_Y706C_YF] , phosphorylation enrichment reported as 0.64

Entry EKLQKYFRQNP [EHHADH_Y682_YF] , phosphorylation enrichment reported as 0.358

Entry CPFNLYAAQLS [HGD_Y40_E42A_YF] , phosphorylation enrichment reported as 0.573

Entry IFLADCRIMEG [ALOX12B_Y318_Y318C_YF] , phosphorylation enrichment reported as 0.654

Entry VEDHYYEGGIG [TKT_Y564] , phosphorylation enrichment reported as 1.59

Entry KQRSDYARELE [MYH3_Y1140] , phosphorylation enrichment reported as 0.331

Entry ETMNKYDLSGR [MYEF2_Y164] , phosphorylation enrichment reported as 0.421

Entry GGFNNYGFGND [HNRNPH3_Y159_YF] , phosphorylation enrichment reported as 0.514

Entry IPGRYYETGSI [PAX2_Y73_L69P] , phosphorylation enrichment reported as 0.492
